Data credit: patent US20250346574A1

- tested.target: Helios (Homo sapiens, UniProt Q96SW2+Q9UKS7)
- Sequence (Q9UKS7 whole entry): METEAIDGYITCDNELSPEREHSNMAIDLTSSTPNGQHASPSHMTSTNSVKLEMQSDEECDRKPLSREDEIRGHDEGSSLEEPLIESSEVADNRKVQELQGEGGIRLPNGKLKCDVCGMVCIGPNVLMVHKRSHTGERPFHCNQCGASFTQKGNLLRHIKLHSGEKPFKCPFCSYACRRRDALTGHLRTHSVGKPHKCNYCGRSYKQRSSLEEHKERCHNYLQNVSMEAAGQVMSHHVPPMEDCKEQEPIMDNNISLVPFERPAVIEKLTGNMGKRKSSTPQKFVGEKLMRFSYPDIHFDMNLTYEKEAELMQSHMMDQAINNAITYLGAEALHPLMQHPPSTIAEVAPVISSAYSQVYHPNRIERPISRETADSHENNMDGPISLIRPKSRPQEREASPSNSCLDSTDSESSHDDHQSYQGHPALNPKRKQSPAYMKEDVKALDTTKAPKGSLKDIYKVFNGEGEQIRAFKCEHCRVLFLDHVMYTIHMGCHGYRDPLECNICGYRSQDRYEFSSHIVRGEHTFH
- Sequence (Q96SW2 whole entry): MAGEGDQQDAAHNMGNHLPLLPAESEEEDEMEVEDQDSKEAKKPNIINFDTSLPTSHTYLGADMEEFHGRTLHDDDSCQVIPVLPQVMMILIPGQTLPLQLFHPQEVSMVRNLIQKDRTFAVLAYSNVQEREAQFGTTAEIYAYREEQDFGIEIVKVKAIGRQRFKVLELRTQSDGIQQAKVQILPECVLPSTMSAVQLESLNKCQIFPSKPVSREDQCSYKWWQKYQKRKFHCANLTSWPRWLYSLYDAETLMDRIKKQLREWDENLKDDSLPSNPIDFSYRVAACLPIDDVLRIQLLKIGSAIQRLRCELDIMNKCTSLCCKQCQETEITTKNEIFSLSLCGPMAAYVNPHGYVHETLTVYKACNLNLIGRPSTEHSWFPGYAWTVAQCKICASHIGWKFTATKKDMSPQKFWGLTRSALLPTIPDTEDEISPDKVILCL
- Sequence (Q16531 whole entry partner): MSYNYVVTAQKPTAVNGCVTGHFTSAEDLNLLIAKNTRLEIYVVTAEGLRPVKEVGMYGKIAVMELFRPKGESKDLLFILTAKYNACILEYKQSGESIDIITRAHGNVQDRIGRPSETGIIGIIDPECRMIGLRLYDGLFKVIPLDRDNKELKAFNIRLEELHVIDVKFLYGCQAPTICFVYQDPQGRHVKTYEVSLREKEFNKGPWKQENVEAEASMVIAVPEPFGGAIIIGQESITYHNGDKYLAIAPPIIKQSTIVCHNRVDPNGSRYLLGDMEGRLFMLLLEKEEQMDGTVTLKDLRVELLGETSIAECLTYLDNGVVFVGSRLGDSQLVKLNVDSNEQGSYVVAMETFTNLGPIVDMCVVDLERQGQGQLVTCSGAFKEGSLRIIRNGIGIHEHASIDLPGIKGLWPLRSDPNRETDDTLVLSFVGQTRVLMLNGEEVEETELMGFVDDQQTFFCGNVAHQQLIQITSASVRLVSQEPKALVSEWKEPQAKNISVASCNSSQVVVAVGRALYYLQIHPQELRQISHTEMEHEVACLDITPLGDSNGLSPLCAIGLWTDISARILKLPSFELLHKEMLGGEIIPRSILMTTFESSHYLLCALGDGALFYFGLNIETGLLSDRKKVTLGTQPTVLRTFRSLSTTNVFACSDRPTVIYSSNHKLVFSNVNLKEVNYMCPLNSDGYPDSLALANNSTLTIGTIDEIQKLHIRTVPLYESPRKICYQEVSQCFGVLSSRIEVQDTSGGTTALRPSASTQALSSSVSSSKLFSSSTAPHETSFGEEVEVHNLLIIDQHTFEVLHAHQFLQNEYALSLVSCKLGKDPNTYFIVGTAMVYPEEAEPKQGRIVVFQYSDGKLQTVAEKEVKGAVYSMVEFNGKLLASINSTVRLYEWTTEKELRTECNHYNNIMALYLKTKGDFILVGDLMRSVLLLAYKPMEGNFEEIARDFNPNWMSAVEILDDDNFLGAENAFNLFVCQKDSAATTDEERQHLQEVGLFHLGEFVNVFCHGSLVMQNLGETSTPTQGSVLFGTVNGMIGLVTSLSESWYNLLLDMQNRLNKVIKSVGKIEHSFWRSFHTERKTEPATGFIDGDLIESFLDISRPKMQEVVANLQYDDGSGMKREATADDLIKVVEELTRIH
- test.protocol: Helios Human T Regulatory Cells Degradation Assay
- Assay type: cell-based
- Set-up: fluorescently labelled antibodies against Helios in 1× Permeabilization buffer; endogenous in cells; host or cells: cryopreserved human T regulatory cells
- study.conditions: cryopreserved human T regulatory cells, incubated 20 hours, Helios-APC antibody staining, flow cytometry; read-out: hTreg Helios DC50
// values below are reported log10 DC50
Response schema: value (number) is log10 of DC50 in units of nM.

Q. Return reported log10 DC50. Input molecule: C[C@@H]1c2c(ccc(-c3cc(CN4CCC(C)(O)C4)ccn3)c2F)C(=O)N1[C@H]1CCC(=O)NC1=O (some centres unmarked) [Example 140]
A. 1.90

Further cases:
Q. Return reported log10 DC50. Input molecule: O=C1CCC(N2Cc3cc(-c4cc(CN5CCC[C@H]5C(=O)NC5CCCCC5)ccn4)ccc3C2=O)C(=O)N1 (some centres unmarked) [Example 190]
A. 1.70

Q. Return reported log10 DC50. Input molecule: O=C1CCC(N2Cc3cc(-c4nccc(CN5CCn6cnnc6C5)c4F)ccc3C2=O)C(=O)N1 (centres unmarked) [Example 263]
A. 3.09
